Assay: chemical genetic growth profiling, strain panel (AID 1159580);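 also: tested at 20 µM; growth read once vehicle control cultures reached saturation at 30 °C; 1 = growth at the plate median or of vehicle wells; lower values mean less growth of the strain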
Conditions: S. cerevisiae deletion strains, growth OD, locus YJL164C, strain tpk1, stronger effect = lower value
Out of some 5,500 compounds screened, about 2,000 (36%) were called active. Not shown: some 18% with an inconclusive outcome. The list shows a part of the results.
normalized growth reference
Returns: the value as a bare number; no unit string appended.

molecule | normalized growth
COc1cc([C@@H]2c3cc4c(cc3[C@H](O)[C@H]3COC(=O)[C@H]23)OCO4)cc(OC)c1OC | 1.02
CC1CC(OC(=O)c2ccccc2O)CC(C)(C)C1 (stereo not given) | 0.97
COc1cc(OC)c2c(OC)c(-c3ccc4c(c3)OCO4)c(=O)oc2c1 | 0.946
CC12CCC(OC(=O)c3ccccc3)CC1CCc1ccccc12 (stereo not given) | 0.989

Okay, now this molecule:
Problem: Please look at this molecule and report its normalized growth: "COc1ccc(-c2c(O)c3c(OC)c4c(cc3oc2=O)OC(C)(C)C=C4)cc1"
Result: 0.967

---

Assay: chemical genetic growth profiling, strain panel (AID 1159580)
Conditions: S. cerevisiae deletion strains, growth OD, locus YMR205C, strain PFK2 (second series), stronger effect = lower value
The campaign covered roughly 5,500 compounds. About 2,000 (36%) were called active. Inconclusive results (about 18%) are left out. The list shows a part of the results.
The following molecules are listed with their measured normalized growth values.
Reply briefly: the number, and no unit.

molecule | quantity name | readout value
CCOC(=O)C(NC(=O)c1cccc(Cl)c1)(Nc1nc2ccccc2s1)C(F)(F)F (stereo not drawn) | normalized growth | 0.941
CCOC(=O)C(O)(c1ccc(NC(=O)c2ccc(Cl)c(Cl)c2)cc1)C(F)(F)F (stereo not drawn) | normalized growth | 0.941
O=C1C(NCc2ccccc2)=C(NCc2ccccc2)C(=O)c2ccccc21 | normalized growth | 0.878
O=S(=O)(Nc1cc(C(F)(F)F)cc(C(F)(F)F)c1)c1ccc(Cl)s1 | normalized growth | 0.852
C=CCC1C(=O)N(S(=O)(=O)c2ccc(Cl)cc2)N=C1CCC (stereo not drawn) | normalized growth | 0.966
O=C(Nc1cc(Cl)cc(Cl)c1)c1cc(Br)ccc1O | normalized growth | 0.858
FC(F)(F)c1c2c(nc3cc(-c4ccco4)nn13)CCC2 | normalized growth | 0.891
COc1ccc(OC)c2nc3c(nc12)C(=O)c1ccccc1-3 | normalized growth | 0.996
COC(=O)c1cc(I)c(OC(C)=O)c(I)c1 | normalized growth | 0.925
CC1SC(c2cccnc2)N(c2ccc(F)cc2F)C1=O (stereo not drawn) | normalized growth | 1.02

Problem: Please report normalized growth for the following molecule: "FC(F)(F)c1ccncc1-c1nc(-c2ccc(Cl)cc2)cs1"
Result: 0.905

Problem: // fetch normalized growth given entry CC1SC(c2cccnc2)N(c2ccc(Cl)cc2)C1=O (stereo not drawn)
Result: 0.64

Problem: Return normalized growth for the following molecule: "O=S(=O)(Nc1c(F)cccc1F)c1ccc(Cl)c(Cl)c1"
Result: 0.973

Problem: Please report normalized growth for the following molecule: "COC(=O)c1cc([N+](=O)[O-])ccc1S(=O)(=O)Cc1ccc(Cl)cc1"
Result: 0.957

Problem: Let me know recorded normalized growth for "Cn1ncc(-c2nc(-c3ccc(Cl)cc3)cs2)c1N" , thanks.
Result: 0.917

Problem: Return normalized growth (reported value) for this molecule: "O=C1c2ccccc2C(=O)c2sccc21"
Result: 0.236

Problem: State its normalized growth: "O=C(Nc1ccccc1Sc1ccc(C(F)(F)F)cc1[N+](=O)[O-])C(Cl)Cl"
Result: 0.953

---

Assay: chemical genetic growth profiling, strain panel (AID 1159580);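 also: tested at 20 µM; growth read once vehicle control cultures reached saturation at 30 °C; 1 = growth at the plate median or of vehicle wells; lower values mean less growth of the strain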
Conditions: S. cerevisiae deletion strains, growth OD, locus YPR141C, strain kar3, stronger effect = lower value
The whole screen tested about 5,500 compounds, of which about 2,000 (36%) were called active. Another 18% or so got no clear call; they are omitted. The list shows a part of the results.
quantity name: normalized growth
Answer using only a numeral; do not append any unit.

Previously resolved entries follow.
compound | normalized growth
O=c1c(O)cccc2cc(O)c(O)c(O)c12 | 0.607
CON | 0.989
CC(C)C1CCC(C(=O)N[C@@H](Cc2ccccc2)C(=O)O)CC1 (some centres not stated) | 1.02
CNC(=O)Oc1ccccc1OC(C)C | 0.978
CN1CCN(C2=Nc3cc(Cl)ccc3Nc3ccccc32)CC1 | 1.02
COC1=CC23CCCN2CCc2cc4c(cc2C3C1O)OCO4 (configuration not stated) | 1.01

Now turn to the next compound.
Problem: Return value of normalized growth for input COC(=O)C(O)[C@H]1C(C)(C)[C@@H](OC(C)=O)[C@@H]2CC3=C4CC(=O)O[C@@H](c5ccoc5)[C@]4(C)CCC3[C@@]1(C)C2=O (some centres not stated) , no commentary.
Result: 0.992

---

Listed below: normalized growth values for each entry.
Test: chemical genetic growth profiling, strain panel (AID 1159580);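 also: tested at 20 µM; growth read once vehicle control cultures reached saturation at 30 °C; 1 = growth at the plate median or of vehicle wells; lower values mean less growth of the strain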
Settings: S. cerevisiae deletion strains, growth OD, locus YNL307C, strain MCK1 (second series), stronger effect = lower value
Hit rate of the full screen: of about 5,500 compounds, about 2,000 (36%) were called active. Not shown: some 18% with an inconclusive outcome. The list shows a part of the results.
Respond numerically, and do not add a unit to the figure.

In the examples that follow, each entry is paired with its recorded normalized growth.
molecule | readout value
Cc1cc(C)c2cc(C(=O)NCCNc3ccc(C(F)(F)F)cn3)[nH]c2c1 | 0.644
C=CCC1C(=O)N(S(=O)(=O)c2ccc(Cl)cc2)N=C1CCC (stereo not given) | 0.989
O=C(OCCNc1ccc([N+](=O)[O-])cn1)c1ccc([N+](=O)[O-])o1 | 0.709
O=[N+]([O-])c1ccc(Sc2ccccc2)c([N+](=O)[O-])c1 | 0.704
Cc1csc2c(N3CCN(C(=S)Nc4ccc(C(F)(F)F)cc4)CC3)ncnc12 | 0.937

Problem: # return recorded normalized growth for entry CCOC(=O)C(NC(=O)c1cccc(Cl)c1)(Nc1nc2ccccc2s1)C(F)(F)F (stereo not given)
Result: 0.916

Problem: Given "O=C(Nc1ccc(F)cc1)c1cc(Br)ccc1O" , respond with its normalized growth.
Result: 0.776

Problem: Specify reported normalized growth for the molecule shown: "O=C(Nc1cc(Cl)cc(Cl)c1)c1cc(Br)ccc1O"
Result: 0.703

Problem: Identify measured normalized growth associated with "COC(=O)c1cc([N+](=O)[O-])ccc1S(=O)(=O)Cc1ccc(Cl)cc1"
Result: 0.976

Problem: Supply recorded normalized growth for "CC(C)c1cccc(C(C)C)c1OC(=O)NC(=O)c1c(Cl)cccc1Cl" here.
Result: 0.958

---

Assay: chemical genetic growth profiling, strain panel (AID 1159580);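 also: tested at 20 µM; growth read once vehicle control cultures reached saturation at 30 °C; 1 = growth at the plate median or of vehicle wells; lower values mean less growth of the strain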
Details: S. cerevisiae deletion strains, growth OD, locus YER110C, stronger effect = lower value
The whole screen tested about 5,500 compounds, of which about 2,000 (36%) were called active. Inconclusive results (about 18%) are left out. Some of the results follow.
Entries and their normalized growth values follow.
Reply: number alone, nothing else.

Before answering, review these 5 worked examples.
molecule | normalized growth
N[C@@H](C(=O)N[C@@H]1C(=O)N2C(C(=O)O)=C(Cl)CS[C@H]12)c1ccccc1 | 1.03
COc1ccc(-c2c(OC)c3c(OC)c4c(cc3oc2=O)OC(C)(C)C=C4)cc1 | 0.973
CC(=O)OC1CCC2(O)CC1(C)CCC1C2CC1(C)C (centres undefined) | 0.973
CC(=O)OCC1=C(C(=O)O)N2C(=O)[C@@H](NC(=O)CSc3ccncc3)[C@H]2SC1 | 0.991
COc1cc(O)c2c(c1)C(=O)c1cc(C)cc(O)c1C2=O | 1.01

Problem: Tell me its normalized growth given COc1cc2c(cc1OC)C(C)NCC2 (centres undefined) as the entry.
Result: 0.963

Problem: Return normalized growth for the following molecule: "CC(C)OC(=O)Nc1cccc(Cl)c1"
Result: 0.986

Problem: Supply reported normalized growth belonging to this molecule: "Cc1cc(O)c2c(c1)C(=O)c1cc(O)cc(O)c1C2=O"
Result: 0.671

Problem: Note normalized growth for the molecule shown: CC(NC(C)(C)C)C(=O)c1cccc(Cl)c1 (centres undefined)
Result: 1.05

Problem: For the molecule CC(=O)O[C@@H]1C2CC[C@@H]3C1(C[C@@H](O)[C@@]1(O)[C@@H](C[C@H](O)C1(C)C)[C@]3(C)O)C[C@@]2(C)O (some centres undefined) , report normalized growth.
Result: 0.96

Problem: Provide only the value of recorded normalized growth for CC(=O)OC1CCC23CC1(C)CCC2C(C)(C)CC3OC(C)=O (centres undefined)
Result: 1.03

Problem: Input "O=C1C=C(O)c2ccccc2C1=O" , output reported normalized growth.
Result: 0.955

Problem: Give the measured normalized growth for NC(Cc1ccc(Cl)cc1)C(=O)O (centres undefined)
Result: 0.982

Problem: Give a short answer stating reported normalized growth for "CC1=C(C(=O)O)N2C(=O)[C@@H](NC(=O)[C@@H](N)c3ccc(O)cc3)[C@H]2SC1" .
Result: 0.973

The origin of these recorded values is PubChem BioAssay AID1159580.
